Value source: patent US11299509B2

Experiment: Maximum tolerable dose (MTD) after i.v. injection
Settings: CD-1, mouse, in vivo, iv
# Lookup of reported MTD keyed by entry

{"compound": "COc1cccc2c1C(=O)c1c(O)c3c(c(O)c1C2=O)C[C@@](O)(C(=O)CO)C[C@@H]3O[C@H]1C[C@H](NC(=O)OCc2ccc(NC(=O)C(CCCNC(N)=O)NC(=O)[C@@H](NC(=O)CCC(=O)NCCOCCOCCOCCOCCC(=O)NCC(C(=O)NCCC(=O)N3Cc4ccccc4C#Cc4ccccc43)S(=O)(=O)O)C(C)C)cc2)[C@H](O)[C@H](C)O1 (some centres unmarked) [sulfo-DBCO-TEG-VC-DOX]", "MTD": "> 120 mg/kg"}

// below: MTD requested for another compound
-- ask Give the value of MTD reported for the following: CC(=O)O[C@H]1C(=O)[C@@]2(C)C([C@H](OC(=O)c3ccccc3)[C@]3(O)C[C@H](OC(=O)[C@H](OC(=O)COCCOCCOCCOCCNC(=O)CCC(=O)N4Cc5ccccc5C#Cc5ccccc54)[C@@H](NC(=O)c4ccccc4)c4ccccc4)C(C)=C1C3(C)C)[C@]1(OC(C)=O)CO[C@@H]1C[C@@H]2O (some centres unmarked) [PTX-TEG-DBCO]
-- reply > 200 mg/kg

* * *

Experiment: physchem
Conditions: aqueous with cosolvent or surfactant or cyclodextrin
attribute measured: solubility

-- ask Output measured solubility for this item: COc1cccc2c1C(=O)c1c(O)c3c(c(O)c1C2=O)C[C@@](O)(C(=O)CO)C[C@@H]3O[C@H]1C[C@H](NC(=O)OCc2ccc(NC(=O)C(CCCNC(N)=O)NC(=O)[C@@H](NC(=O)CCOCCOCCOCCOCCNC(=O)CCC(=O)N3Cc4ccccc4C#Cc4ccccc43)C(C)C)cc2)[C@H](O)[C@H](C)O1 (stereo partly shown)
-- reply ~3500 µg/mL

* * *

Assay: Maximum tolerable dose (MTD) after i.v. injection
Conditions: CD-1, mouse, in vivo
attribute measured: MTD

-- ask For the compound COc1cccc2c1C(=O)c1c(O)c3c(c(O)c1C2=O)C[C@@](O)(C(=O)CO)C[C@@H]3O[C@H]1C[C@H](NC(=O)OCc2ccc(NC(=O)C(CCCNC(N)=O)NC(=O)[C@@H](NC(=O)CCOCCOCCOCCOCCNC(=O)CCC(=O)N3Cc4ccccc4C#Cc4ccccc43)C(C)C)cc2)[C@H](O)[C@H](C)O1 (stereo partly shown) [DBCO-TEG-VC-DOX] , give its measured MTD value.
-- reply > 204 mg/kg
